assay: Tmax in Wistar rat at 10 mg/kg, po measured upto 24 hrs by LC/MS/MS analysis; assay type: ADME, organism-based; details: in vivo
quantityName: Tmax

Query string: Look up Tmax for this molecule: C[C@@H]1CN(C(=O)c2nc(Nc3cc(C4CC4)[nH]n3)c3cc(Cl)ccc3n2)CCN1.Cl
Result string: 4.98 min

----------
assay: Volume of distribution in Wistar rat at 2 mg/kg, iv measured upto 24 hrs by LC/MS/MS analysis; assay type: ADME, organism-based; settings: in vivo
quantityName: Vd (L/kg)
Note: unit L/kg is implicit; provide only the numeric part.

Query string: Look up Vd for this molecule: C[C@@H]1CN(C(=O)c2nc(Nc3cc(C4CC4)[nH]n3)c3cc(Cl)ccc3n2)CCN1.Cl
Result string: 12.4
